assay: Inhibitory activity against MCP-1 induced Calcium flux in […]; assay type: functional, cell-based; conditions: Homo sapiens, THP-1
property-name: log10 of IC50 (log10 of the value in µM)
Response schema: value (number) is log10 of IC50 in units of µM.

[Q] So what does the record say about log10 of IC50 for COC(=O)c1cnc(S)n1C(C)c1ccc(Cl)c(Cl)c1 (stereo unspecified) ?
[A] -0.60

[Q] Next entry: CCC(c1ccc(Cl)c(Cl)c1)n1c(C(N)=O)cnc1S (stereo unspecified)
[A] -1.30

[Q] What do you get for CCC(c1ccc(C(F)(F)F)c(F)c1)n1c(C(=O)OC)cnc1S (stereo unspecified) ?
[A] 0.30

[Q] Another compound to check: COC(=O)c1cnc(S)n1C(c1ccc(Cl)c(Cl)c1)C1CC1 (stereo unspecified)
[A] 0.30

[Q] Note, next up: CC[C@H](c1ccc(Cl)c(Cl)c1)n1c(C(=O)OC)cnc1S
[A] 0.20

[Q] Entry to check: CC[C@@H](c1ccc(Cl)c(Cl)c1)n1c(C(N)=O)cnc1S
[A] -1.40

[Q] // next record CCC(c1ccc(Cl)c(Cl)c1)n1c(C(=O)OC)cnc1S (stereo unspecified)
[A] -0.70

====

assay: Inhibitory activity against MCP-1 induced Calcium flux in […]; format: functional, cell-based; conditions: Homo sapiens, THP-1
Exercise: for every item that follows, state its recorded pIC50.
Just so you know, pIC50 here is -log10 of the concentration in molar units; reply with that number alone.

[Q] Look up pIC50 for this compound: CCC(c1ccc(Cl)c(Cl)c1)n1c(C(=O)NC)cnc1S (stereo not drawn)
[A] 6.50

[Q] Follow-up item: CCC(c1ccc(Cl)c(Cl)c1)n1c(S)nc(C(=O)OC)c1C(=O)OC (stereo not drawn)
[A] 8.00

[Q] Same for CC[C@H](c1ccc(F)c(F)c1)n1c(S)nc(C(=O)OC)c1C(=O)OC
[A] 5.70

[Q] // query: CCOC(=O)c1cnc(S)n1C(CC)c1ccc(F)c(F)c1 (stereo not drawn)
[A] 6.50

Where do these numbers come from? They come from ChEMBL document CHEMBL1144259.
